B1: Chromodomain-helicase-DNA-binding protein 4, residues 365 to 417; numbered along this chain, Q14839 (parent)
chain: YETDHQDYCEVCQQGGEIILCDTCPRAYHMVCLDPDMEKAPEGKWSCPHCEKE

variants of: B1; test: abundance fitness (aPCA) (normalised: wild type 0, dead -1); higher = more abundant; growth selection in yeast, the domain comes from the species named; conditions: Homo sapiens
Classify as follows. Reported abundance fitness greater than or equal to 0.02: yes (1). Reported abundance fitness below: no (0).

Challenge: Assess whether reported abundance fitness for "T3M" sits at 0.02 or higher.
Response given: yes (1)
